- protocol details: Solubility in water, FaSSIF, FeSSIF and SGF
- Assay type: physicochemical
- test context: SGF, pH 1.8, simulated gastric fluid, thermodynamic from solid, SGF, pH 1.8; read-out: Solubility
endpoint name: Solubility (mg/mL)
Report only the number, with the unit mg/mL understood.

Prompt: Provide only the value of recorded Solubility for CN(C)C/C=C/C(=O)Nc1cc2c(Nc3ccc(F)c(Cl)c3)ncnc2cc1OC(F)F [Free base]
Completion: 8.37

* * *

- protocol details: Storage stability test, chemical content by HPLC
- Format: physicochemical
- test context: chemical content as % of initial content
endpoint name: Chemical stability, 25° C./60% R.H. One week (%)
Respond with the bare value in %.

{"columns": ["compound", "endpoint value"],
 "data": [
  ["CN(C)C/C=C/C(=O)Nc1cc2c(Nc3ccc(F)c(Cl)c3)ncnc2cc1OC(F)F [Crystal form G]", 99.8],
  ["CN(C)C/C=C/C(=O)Nc1cc2c(Nc3ccc(F)c(Cl)c3)ncnc2cc1OC(F)F [Crystal form E]", 99.8],
  ["CN(C)C/C=C/C(=O)Nc1cc2c(Nc3ccc(F)c(Cl)c3)ncnc2cc1OC(F)F [Crystal form K]", 99.9],
  ["CN(C)C/C=C/C(=O)Nc1cc2c(Nc3ccc(F)c(Cl)c3)ncnc2cc1OC(F)F [Free base]", 99.8]
]}

Prompt: Answer with reported Chemical stability, 25° C./60% R.H. One week of CN(C)C/C=C/C(=O)Nc1cc2c(Nc3ccc(F)c(Cl)c3)ncnc2cc1OC(F)F [Crystal form F]
Completion: 99.8
